- procedure-summary: CellTiter-Glo cell viability
- Assay type: cell-based
- experimental-context: human, DU145 cells, Concentration 156.25, 4 day, read-out: mean_norm (normalized viability)
metric-name: viability at 4 day (%)
All answers are understood in %, so give the number only.

Can you share its viability at 4 day? I mean this compound: CC[C@@H]1C(=O)N(C)c2cnc(Nc3ccc(C(=O)NCCOCCOCCOCCOCCC(=O)N4CCC(Nc5cccc6c5cc(C#CCNc5ccc(S(C)(=O)=O)cc5OC)n6CC(F)(F)F)CC4)cc3OC)nc2N1C1CCCC1 [p53-01, PMV6-PEG4-BI2536]
97.4

---

- procedure-summary: CellTiter-Glo cell viability
- Format: cell-based
- experimental-context: human, DU145 cells, Concentration 78.125, 4 day, read-out: mean_norm (normalized viability)
metric-name: viability at 4 day (%)
All answers are understood in %, so give the number only.

Can you share its viability at 4 day? I mean this molecule: CC[C@@H]1C(=O)N(C)c2cnc(Nc3ccc(C(=O)NCCOCCOCCOCCOCCC(=O)N4CCC(Nc5cccc6c5cc(C#CCNc5ccc(S(C)(=O)=O)cc5OC)n6CC(F)(F)F)CC4)cc3OC)nc2N1C1CCCC1 [p53-01, PMV6-PEG4-BI2536]
101

---

- procedure-summary: CellTiter-Glo cell viability
- Format: cell-based
- experimental-context: human, p53_construct Mut; Compound_conc 0.390625; CTG 4 days; read-out: mean (normalized viability)
metric-name: viability at 4 days
Just so you know, I need the unit written after the number.

Can you share its viability at 4 days? I mean this compound: "CC[C@@H]1C(=O)N(C)c2cnc(Nc3ccc(C(=O)NC4CCN(C)CC4)cc3OC)nc2N1C1CCCC1"
106%

---

- procedure-summary: CellTiter-Glo cell viability
- Type: cell-based
- experimental-context: human, p53_construct Mut; Compound_conc 50; CTG 4 days; read-out: mean (normalized viability)
metric-name: viability at 4 days
Just so you know, I need the unit written after the number.

Can you share its viability at 4 days? I mean this compound: CC[C@@H]1C(=O)N(C)c2cnc(Nc3ccc(C(=O)NC4CCN(C)CC4)cc3OC)nc2N1C1CCCC1 [BI2536]
47.3%

---

- procedure-summary: CellTiter-Glo cell viability
- Format: cell-based
- experimental-context: human, NUGC-3 cells, NUGC3; Concentration 312.5; 4 day; read-out: mean_norm (normalized viability)
- Description: Cells were plated in 384-well plates (typically 1,500 cells per well) with varying concentrations of compounds, with a total volume of 50 μl per well. CTG reagent was added (25 μl) to the solutions, mixed and read out using an EnVision 2105 multimode plate reader.
metric-name: viability at 4 day

Can you share its viability at 4 day? I mean this molecule: "CC[C@@H]1C(=O)N(C)c2cnc(Nc3ccc(C(=O)NCCOCCOCCOCCOCCC(=O)N4CCC(Nc5cccc6c5cc(C#CCNc5ccc(S(C)(=O)=O)cc5OC)n6CC(F)(F)F)CC4)cc3OC)nc2N1C1CCCC1"
98.2%

---

- procedure-summary: CellTiter-Glo cell viability
- Assay type: cell-based
- experimental-context: human, LNCaP cells, LNCAP; Concentration 156.25; 4 day; read-out: mean_norm (normalized viability)
metric-name: viability at 4 day (%)
All answers are understood in %, so give the number only.

Can you share its viability at 4 day? I mean this molecule: "CC[C@@H]1C(=O)N(C)c2cnc(Nc3ccc(C(=O)NCCOCCOCCOCCOCCC(=O)N4CCC(Nc5cccc6c5cc(C#CCNc5ccc(S(C)(=O)=O)cc5OC)n6CC(F)(F)F)CC4)cc3OC)nc2N1C1CCCC1"
94.9

---

- procedure-summary: CellTiter-Glo cell viability
- Format: cell-based
- experimental-context: human, MFE319 cells, p53-01 Concentration (µM) 2.5; No PMV6; read-out: viability, replicates (sheet 4G)
- Procedure: Cells were plated in 384-well plates (typically 1,500 cells per well) with varying concentrations of compounds, with a total volume of 50 μl per well. CTG reagent was added (25 μl) to the solutions, mixed and read out using an EnVision 2105 multimode plate reader.
metric-name: viability at 2.5 µM (%)
All answers are understood in %, so give the number only.

Can you share its viability at 2.5 µM? I mean this compound: CC[C@@H]1C(=O)N(C)c2cnc(Nc3ccc(C(=O)NCCOCCOCCOCCOCCC(=O)N4CCC(Nc5cccc6c5cc(C#CCNc5ccc(S(C)(=O)=O)cc5OC)n6CC(F)(F)F)CC4)cc3OC)nc2N1C1CCCC1 [p53-01, PMV6-PEG4-BI2536]
41.5

---

- procedure-summary: CellTiter-Glo cell viability
- Format: cell-based
- experimental-context: human, p53_construct WT; Compound_conc 0.0488281; CTG 4 days; read-out: mean (normalized viability)
metric-name: viability at 4 days (%)
All answers are understood in %, so give the number only.

Can you share its viability at 4 days? I mean this compound: "CC[C@@H]1C(=O)N(C)c2cnc(Nc3ccc(C(=O)NC4CCN(C)CC4)cc3OC)nc2N1C1CCCC1"
97

---

- procedure-summary: viability with doxycycline-inducible construct
- Type: cell-based
- experimental-context: human, dox 0; Concentration 625; read-out: mean_norm (normalized viability)
metric-name: viability (%)
All answers are understood in %, so give the number only.

Can you share its viability? I mean this molecule: CC[C@@H]1C(=O)N(C)c2cnc(Nc3ccc(C(=O)NCCOCCOCCOCCOCCC(=O)N4CCC(Nc5cccc6c5cc(C#CCNc5ccc(S(C)(=O)=O)cc5OC)n6CC(F)(F)F)CC4)cc3OC)nc2N1C1CCCC1 [p53-01, PMV6-PEG4-BI2536]
95.7

---

- procedure-summary: CellTiter-Glo cell viability
- Assay type: cell-based
- experimental-context: human, Huh7 cells, Concentration 5000, 4 day, read-out: mean_norm (normalized viability)
metric-name: viability at 4 day
Just so you know, I need the unit written after the number.

Can you share its viability at 4 day? I mean this compound: CC[C@@H]1C(=O)N(C)c2cnc(Nc3ccc(C(=O)NCCOCCOCCOCCOCCC(=O)N4CCC(Nc5cccc6c5cc(C#CCNc5ccc(S(C)(=O)=O)cc5OC)n6CC(F)(F)F)CC4)cc3OC)nc2N1C1CCCC1 [p53-01, PMV6-PEG4-BI2536]
100%

---

Entries and their pEC50 values follow.
- system-name: p53-Y220C–PLK1 ternary complex (Homo sapiens, UniProt P04637+P53350, M133L/N239Y/N268D/V203A/Y220C)
- Construct: NLS–LgBiT–p53-Y220C (DBD) and mEGFP–PLK1–SmBiT; expressed in transfected cells; host or cells: 293T cells, transient cotransfection
- Sequence (P04637 102-292 limits assumed, stated change not applied): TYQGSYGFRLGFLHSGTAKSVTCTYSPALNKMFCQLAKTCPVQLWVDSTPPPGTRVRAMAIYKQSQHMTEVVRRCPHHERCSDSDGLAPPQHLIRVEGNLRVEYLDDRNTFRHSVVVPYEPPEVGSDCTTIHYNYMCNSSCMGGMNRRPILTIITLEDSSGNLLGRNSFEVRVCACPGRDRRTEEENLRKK
- Sequence (P53350 whole entry): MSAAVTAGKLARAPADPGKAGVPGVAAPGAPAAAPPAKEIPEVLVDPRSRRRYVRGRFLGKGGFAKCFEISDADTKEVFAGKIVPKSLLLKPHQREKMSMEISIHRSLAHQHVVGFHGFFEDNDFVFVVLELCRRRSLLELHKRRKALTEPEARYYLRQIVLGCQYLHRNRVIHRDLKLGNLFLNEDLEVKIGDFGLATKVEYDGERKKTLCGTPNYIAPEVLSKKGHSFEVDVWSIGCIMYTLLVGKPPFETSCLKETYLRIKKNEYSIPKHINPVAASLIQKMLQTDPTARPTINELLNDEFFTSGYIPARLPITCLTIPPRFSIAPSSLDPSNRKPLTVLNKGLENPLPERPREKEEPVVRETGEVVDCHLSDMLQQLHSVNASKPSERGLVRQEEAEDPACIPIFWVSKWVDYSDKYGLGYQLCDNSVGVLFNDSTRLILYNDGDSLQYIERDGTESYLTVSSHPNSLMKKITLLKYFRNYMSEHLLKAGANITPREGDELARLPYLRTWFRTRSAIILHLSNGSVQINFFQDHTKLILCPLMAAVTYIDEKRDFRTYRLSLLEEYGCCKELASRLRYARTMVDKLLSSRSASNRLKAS
- procedure-summary: NanoBiT ternary complex assay in cotransfected 293T cells
- Format: cell-based
- experimental-context: sheet 5C; read-out: EC50
Formally, pEC50 is defined as -log10 of the concentration c, with c in mol/L.

- CC[C@@H]1C(=O)N(C)c2cnc(Nc3ccc(C(=O)NCCOCCOCCOCCOCCC(=O)N4CCC(Nc5cccc6c5cc(C#CCNc5ccc(S(C)(=O)=O)cc5OC)n6CC(F)(F)F)CC4)cc3OC)nc2N1C1CCCC1: 5.67

Can you share its pEC50? I mean this compound: "CC[C@@H]1C(=O)N(C)c2cnc(Nc3ccc(C(=O)NCCC(=O)N4CCC(Nc5cccc6c5cc(C#CCNc5ccc(S(C)(=O)=O)cc5OC)n6CC(F)(F)F)CC4)cc3OC)nc2N1C1CCCC1"
6.39

---

- procedure-summary: CellTiter-Glo cell viability
- Format: cell-based
- experimental-context: human, MCF7 cells, Concentration 20000, 4 day, read-out: mean_norm (normalized viability)
metric-name: viability at 4 day (%)
All answers are understood in %, so give the number only.

Can you share its viability at 4 day? I mean this molecule: "CC[C@@H]1C(=O)N(C)c2cnc(Nc3ccc(C(=O)NCCOCCOCCOCCOCCC(=O)N4CCC(Nc5cccc6c5cc(C#CCNc5ccc(S(C)(=O)=O)cc5OC)n6CC(F)(F)F)CC4)cc3OC)nc2N1C1CCCC1"
29.2

---

- procedure-summary: CellTiter-Glo cell viability
- Format: cell-based
- experimental-context: human, BxPC-3 cells, BXPC3; Concentration 78.125; 4 day; read-out: mean_norm (normalized viability)
metric-name: viability at 4 day (%)
All answers are understood in %, so give the number only.

Can you share its viability at 4 day? I mean this compound: "CC[C@@H]1C(=O)N(C)c2cnc(Nc3ccc(C(=O)NCCOCCOCCOCCOCCC(=O)N4CCC(Nc5cccc6c5cc(C#CCNc5ccc(S(C)(=O)=O)cc5OC)n6CC(F)(F)F)CC4)cc3OC)nc2N1C1CCCC1"
94.9

---

- procedure-summary: viability with doxycycline-inducible construct
- Format: cell-based
- experimental-context: human, dox 0; Concentration 5000; read-out: mean_norm (normalized viability)
metric-name: viability (%)
All answers are understood in %, so give the number only.

Can you share its viability? I mean this compound: CC[C@@H]1C(=O)N(C)c2cnc(Nc3ccc(C(=O)NCCOCCOCCOCCOCCC(=O)N4CCC(Nc5cccc6c5cc(C#CCNc5ccc(S(C)(=O)=O)cc5OC)n6CC(F)(F)F)CC4)cc3OC)nc2N1C1CCCC1 [p53-01, PMV6-PEG4-BI2536]
60.1
